- PROTOCOL TEXT: Solubility in screen solvents derived from loading in solvent and dissolution
- Format: physicochemical
- EXPERIMENTAL CONTEXT: 2-methoxyethanol, organic solvent or mixture, thermodynamic from solid
MEASURED ENDPOINT: solubility

Sample COc1ccc2c(O[C@@H]3C[C@H]4C(=O)N[C@]5(C(=O)NS(=O)(=O)C6CC6)C[C@H]5/C=C\CCCCC[C@H](CC(=O)N5CCCC(F)(F)C5)C(=O)N4C3)cc(-c3nc(C(C)C)cs3)nc2c1C ; solubility observed: > 93 mg/mL

====

- PROTOCOL TEXT: Solubility assessment at room temperature by solvent aliquot addition and visual inspection
- Assay type: physicochemical
- EXPERIMENTAL CONTEXT: organic solvent or mixture, thermodynamic from solid, MeOH
MEASURED ENDPOINT: solubility

Sample COc1ccc2c(O[C@@H]3C[C@H]4C(=O)N[C@]5(C(=O)[N-]S(=O)(=O)C6CC6)C[C@H]5/C=C\CCCCC[C@H](CC(=O)N5CCCC(F)(F)C5)C(=O)N4C3)cc(-c3nc(C(C)C)cs3)nc2c1C.[Na+] [ACH-0142684 sodium salt] ; solubility observed: 92 to 123 mg/mL

====

- PROTOCOL TEXT: Solubility in screen solvents derived from loading in solvent and dissolution
- Format: physicochemical
- EXPERIMENTAL CONTEXT: Isopropyl ether, organic solvent or mixture, thermodynamic from solid
MEASURED ENDPOINT: solubility

Sample COc1ccc2c(O[C@@H]3C[C@H]4C(=O)N[C@]5(C(=O)NS(=O)(=O)C6CC6)C[C@H]5/C=C\CCCCC[C@H](CC(=O)N5CCCC(F)(F)C5)C(=O)N4C3)cc(-c3nc(C(C)C)cs3)nc2c1C [ACH-0142684] ; solubility observed: < 50 mg/mL

====

- PROTOCOL TEXT: Solubility in screen solvents derived from loading in solvent and dissolution
- Format: physicochemical
- EXPERIMENTAL CONTEXT: 2-propanol: 5 vol % Water, organic solvent or mixture, thermodynamic from solid
MEASURED ENDPOINT: solubility

Sample COc1ccc2c(O[C@@H]3C[C@H]4C(=O)N[C@]5(C(=O)NS(=O)(=O)C6CC6)C[C@H]5/C=C\CCCCC[C@H](CC(=O)N5CCCC(F)(F)C5)C(=O)N4C3)cc(-c3nc(C(C)C)cs3)nc2c1C ; solubility observed: < 50 mg/mL

====

- PROTOCOL TEXT: Solubility in screen solvents derived from loading in solvent and dissolution
- Type: physicochemical
- EXPERIMENTAL CONTEXT: THF: 5 vol % Water, organic solvent or mixture, thermodynamic from solid
MEASURED ENDPOINT: solubility

Sample COc1ccc2c(O[C@@H]3C[C@H]4C(=O)N[C@]5(C(=O)NS(=O)(=O)C6CC6)C[C@H]5/C=C\CCCCC[C@H](CC(=O)N5CCCC(F)(F)C5)C(=O)N4C3)cc(-c3nc(C(C)C)cs3)nc2c1C ; solubility observed: > 85 mg/mL

====

- PROTOCOL TEXT: Solubility in screen solvents derived from loading in solvent and dissolution
- Type: physicochemical
- EXPERIMENTAL CONTEXT: EtOH, organic solvent or mixture, thermodynamic from solid
- Source text: They were selected based on a diverse range of properties including dielectric constants, boiling points, and H-bonding that are important to crystallization and crystal-form discovery. The values in TABLE 2 are derived from ACH-0142684 loading in solvent and dissolution. The symbol † indicates the solubility value is found in TABLE 1.
MEASURED ENDPOINT: solubility

Sample COc1ccc2c(O[C@@H]3C[C@H]4C(=O)N[C@]5(C(=O)NS(=O)(=O)C6CC6)C[C@H]5/C=C\CCCCC[C@H](CC(=O)N5CCCC(F)(F)C5)C(=O)N4C3)cc(-c3nc(C(C)C)cs3)nc2c1C ; solubility observed: < 72 mg/mL

====

- PROTOCOL TEXT: Solubility assessment at room temperature by solvent aliquot addition and visual inspection
- Format: physicochemical
- EXPERIMENTAL CONTEXT: organic solvent or mixture, thermodynamic from solid, EtOAc
MEASURED ENDPOINT: solubility

Sample COc1ccc2c(O[C@@H]3C[C@H]4C(=O)N[C@]5(C(=O)[N-]S(=O)(=O)C6CC6)C[C@H]5/C=C\CCCCC[C@H](CC(=O)N5CCCC(F)(F)C5)C(=O)N4C3)cc(-c3nc(C(C)C)cs3)nc2c1C.[Na+] [ACH-0142684 sodium salt] ; solubility observed: < 1020 µg/mL

====

- PROTOCOL TEXT: Solubility in screen solvents derived from loading in solvent and dissolution
- Format: physicochemical
- EXPERIMENTAL CONTEXT: 2-propanol: 10 vol %, organic solvent or mixture, thermodynamic from solid
MEASURED ENDPOINT: solubility

Sample COc1ccc2c(O[C@@H]3C[C@H]4C(=O)N[C@]5(C(=O)NS(=O)(=O)C6CC6)C[C@H]5/C=C\CCCCC[C@H](CC(=O)N5CCCC(F)(F)C5)C(=O)N4C3)cc(-c3nc(C(C)C)cs3)nc2c1C [ACH-0142684] ; solubility observed: < 50 mg/mL

====

- PROTOCOL TEXT: Solubility assessment at room temperature by solvent aliquot addition and visual inspection
- Assay type: physicochemical
- EXPERIMENTAL CONTEXT: organic solvent or mixture, thermodynamic from solid, ACN
MEASURED ENDPOINT: solubility

Sample COc1ccc2c(O[C@@H]3C[C@H]4C(=O)N[C@]5(C(=O)[N-]S(=O)(=O)C6CC6)C[C@H]5/C=C\CCCCC[C@H](CC(=O)N5CCCC(F)(F)C5)C(=O)N4C3)cc(-c3nc(C(C)C)cs3)nc2c1C.[Na+] [ACH-0142684 sodium salt] ; solubility observed: 1000 to 1200 µg/mL

====

- PROTOCOL TEXT: Solubility in water after temperature cycling between 40° C. and 5° C.
- Format: physicochemical
- EXPERIMENTAL CONTEXT: thermodynamic from solid, cycling between 40° C. and 5° C. for 2 days
MEASURED ENDPOINT: solubility at 2 days

Sample COc1ccc2c(O[C@@H]3C[C@H]4C(=O)N[C@]5(C(=O)[N-]S(=O)(=O)C6CC6)C[C@H]5/C=C\CCCCC[C@H](CC(=O)N5CCCC(F)(F)C5)C(=O)N4C3)cc(-c3nc(C(C)C)cs3)nc2c1C.[Na+] [ACH-0142684 sodium salt] ; solubility at 2 days observed: ~50 mg/mL

====

- PROTOCOL TEXT: Solubility in screen solvents derived from loading in solvent and dissolution
- Assay type: physicochemical
- EXPERIMENTAL CONTEXT: EtOAc:pentane (1:4), organic solvent or mixture, thermodynamic from solid
MEASURED ENDPOINT: solubility

Sample COc1ccc2c(O[C@@H]3C[C@H]4C(=O)N[C@]5(C(=O)NS(=O)(=O)C6CC6)C[C@H]5/C=C\CCCCC[C@H](CC(=O)N5CCCC(F)(F)C5)C(=O)N4C3)cc(-c3nc(C(C)C)cs3)nc2c1C [ACH-0142684] ; solubility observed: < 50 mg/mL

====

- PROTOCOL TEXT: Solubility assessment at room temperature by solvent aliquot addition and visual inspection
- Format: physicochemical
- EXPERIMENTAL CONTEXT: organic solvent or mixture, thermodynamic from solid, acetone
MEASURED ENDPOINT: solubility

Sample COc1ccc2c(O[C@@H]3C[C@H]4C(=O)N[C@]5(C(=O)[N-]S(=O)(=O)C6CC6)C[C@H]5/C=C\CCCCC[C@H](CC(=O)N5CCCC(F)(F)C5)C(=O)N4C3)cc(-c3nc(C(C)C)cs3)nc2c1C.[Na+] [ACH-0142684 sodium salt] ; solubility observed: 5700 to 14000 µg/mL

====

- PROTOCOL TEXT: Solubility in screen solvents derived from loading in solvent and dissolution
- Format: physicochemical
- EXPERIMENTAL CONTEXT: 4-Methyl-2-pentanone, organic solvent or mixture, thermodynamic from solid
- Text: They were selected based on a diverse range of properties including dielectric constants, boiling points, and H-bonding that are important to crystallization and crystal-form discovery. The values in TABLE 2 are derived from ACH-0142684 loading in solvent and dissolution. The symbol † indicates the solubility value is found in TABLE 1.
MEASURED ENDPOINT: solubility

Sample COc1ccc2c(O[C@@H]3C[C@H]4C(=O)N[C@]5(C(=O)NS(=O)(=O)C6CC6)C[C@H]5/C=C\CCCCC[C@H](CC(=O)N5CCCC(F)(F)C5)C(=O)N4C3)cc(-c3nc(C(C)C)cs3)nc2c1C [ACH-0142684] ; solubility observed: < 50 mg/mL

====

- PROTOCOL TEXT: Solubility in screen solvents derived from loading in solvent and dissolution
- Assay type: physicochemical
- EXPERIMENTAL CONTEXT: Acetonitrile: 5 vol % Water, organic solvent or mixture, thermodynamic from solid
MEASURED ENDPOINT: solubility

Sample COc1ccc2c(O[C@@H]3C[C@H]4C(=O)N[C@]5(C(=O)NS(=O)(=O)C6CC6)C[C@H]5/C=C\CCCCC[C@H](CC(=O)N5CCCC(F)(F)C5)C(=O)N4C3)cc(-c3nc(C(C)C)cs3)nc2c1C ; solubility observed: < 50 mg/mL
